# experimentNotes: HepG2 cytotoxicity, Neutral Red Uptake
# Type: cell-based, Human
# testSettings: human, HepG2 cells; HepG2, 24 h, Neutral Red Uptake; read-out: IC50 (cytotoxic effect)
experimentalEndpoint: IC50 at 24 h (µM)

>>> reportedmeasurement("COc1cccc2c1C(=O)c1c(O)c3c(c(O)c1C2=O)C[C@@](O)(C(=O)CO)C[C@@H]3O[C@H]1C[C@H](N)[C@H](O)[C@H](C)O1")
1.8

====

# experimentNotes: in vitro
# testSettings: buffer
The entries below come with measured half-life values attached.
experimentalEndpoint: half-life (h)

>>> reportedmeasurement("C[C@H](CCC(=O)Oc1ccc(/C=C2\\SC(=N)NC2=O)cc1)[C@H]1CCC2C3C(C[C@H](O)[C@@]21C)[C@@]1(C)CC[C@@H](O)CC1C[C@H]3O (some centres unmarked)")
21.7
>>> reportedmeasurement("[H]/N=C1/NC(=O)C(=Cc2ccc(O)cc2)S1")
114
